# Tested system: Tyrosinase (Homo sapiens, UniProt P14679)
# Assay remarks: Inhibition of human tyrosinase
Measured metric: IC50

Query string: Entry under review: `Oc1cccc(O)c1` . Reported IC50?
Result string: > 3 mM

====

Target chain: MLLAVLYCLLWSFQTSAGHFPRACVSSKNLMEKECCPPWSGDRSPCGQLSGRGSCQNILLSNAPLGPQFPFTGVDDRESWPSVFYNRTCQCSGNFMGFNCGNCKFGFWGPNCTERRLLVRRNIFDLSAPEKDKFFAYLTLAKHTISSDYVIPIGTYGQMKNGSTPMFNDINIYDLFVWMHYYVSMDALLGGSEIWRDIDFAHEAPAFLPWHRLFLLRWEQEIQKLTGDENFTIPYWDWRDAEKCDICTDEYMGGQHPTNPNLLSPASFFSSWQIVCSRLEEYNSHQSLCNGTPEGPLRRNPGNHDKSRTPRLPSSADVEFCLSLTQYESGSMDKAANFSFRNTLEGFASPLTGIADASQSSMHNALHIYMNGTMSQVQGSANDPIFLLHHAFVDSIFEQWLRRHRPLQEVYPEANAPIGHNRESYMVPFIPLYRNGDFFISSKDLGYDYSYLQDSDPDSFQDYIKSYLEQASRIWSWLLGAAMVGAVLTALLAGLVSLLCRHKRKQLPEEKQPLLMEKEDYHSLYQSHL
Below is a list of entries, each paired with its recorded IC50 value.
Supply the numeric figure in µM, leaving out any unit text.

> print(dat)
                        chemical.string  observed.value
1  O=C1/C(=C/c2ccc(O)cc2O)Nc2cc(O)ccc21             2.3

Okay, now this compound:
Query string: Entry under review: `O=C1/C(=C/c2ccc(O)cc2O)Oc2c1ccc(O)c2O` . Reported IC50?
Result string: 11.8

====

# Tested system: Tyrosinase (Homo sapiens)
# Sequence (P14679 whole entry): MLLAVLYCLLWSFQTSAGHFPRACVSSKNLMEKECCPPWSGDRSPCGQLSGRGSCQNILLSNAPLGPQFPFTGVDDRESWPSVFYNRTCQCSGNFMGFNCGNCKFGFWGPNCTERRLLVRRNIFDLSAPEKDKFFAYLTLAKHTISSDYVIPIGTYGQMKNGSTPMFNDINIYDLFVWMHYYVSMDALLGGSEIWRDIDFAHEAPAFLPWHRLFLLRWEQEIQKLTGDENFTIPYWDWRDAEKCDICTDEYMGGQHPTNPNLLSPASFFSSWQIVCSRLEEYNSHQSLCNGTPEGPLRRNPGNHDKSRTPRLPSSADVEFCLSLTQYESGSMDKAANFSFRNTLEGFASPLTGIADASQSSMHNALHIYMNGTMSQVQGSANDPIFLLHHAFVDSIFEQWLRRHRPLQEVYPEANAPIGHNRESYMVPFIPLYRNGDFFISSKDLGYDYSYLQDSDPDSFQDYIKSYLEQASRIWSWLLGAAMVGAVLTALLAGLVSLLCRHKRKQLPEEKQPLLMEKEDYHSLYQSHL
Measured metric: IC50 (µM)
Supply the numeric figure in µM, leaving out any unit text.

Please review the entries below; each comes with its answer.
> print(dat)
                                   compound  measured.metric  observed.value
1      O=C1/C(=C/c2ccc(O)cc2O)Oc2c(O)cccc21             IC50            1.57
2  CC1/C(=C\c2ccc(O)cc2O)C(=O)c2ccccc21 (stereo not given)             IC50             8.2
3            O=C(/C=C/c1ccc(O)cc1O)c1ccccc1             IC50              60
4         O=C1/C(=C/c2ccc(O)cc2O)Oc2ccccc21             IC50              18
5      O=C1/C(=C/c2ccc(O)cc2O)Oc2cccc(O)c21             IC50              25

Query string: Entry under review: `O=C1/C(=C/c2ccc(=O)n(O)c2)Oc2cc(O)ccc21` . Reported IC50?
Result string: 15

Query string: What do we get for `O=C1/C(=C/c2ccc(O)cc2O)Cc2cc(O)ccc21` ?
Result string: 3.4

Query string: What do we get for `CCCCc1ccc(O)cc1O` ?
Result string: 8.3

Query string: What do we get for `Cc1c(O)ccc2c1O/C(=C\c1ccc(O)cc1O)C2=O` ?
Result string: 80

Query string: What do we get for `O=C1/C(=C/c2ccc(O)cc2O)Oc2cc(O)ccc21` ?
Result string: 6.4

Query string: What do we get for `O=C1/C(=C/c2ccc(O)cc2O)Nc2ccccc21` ?
Result string: 12.7

Query string: What do we get for `O=C1/C(=C/c2ccc(O)cc2O)Sc2c(O)cccc21` ?
Result string: 48

Data credit: ChEMBL document CHEMBL5352459
